Where do these numbers come from? They come from ChEMBL document CHEMBL1201861.

Tested on: HCC1187
Assay: cells
Type: functional, cell-based, Homo sapiens
Details: Homo sapiens, HCC1187
Description: SANGER: Inhibition of human HCC1187 cell growth in a cell viability assay.
Reported IC50 is given for each of the following compounds.

>  <cpdSmiles>
Cc1ccc(-n2nc(C(C)(C)C)cc2NC(=O)Nc2ccc(OCCN3CCOCC3)c3ccccc23)cc1

>  <targetOrTestSystem>
HCC1187

>  <IC50>
> 10 µM

$$$$
>  <cpdSmiles>
O=S(=O)(O)c1ccc2cc(/N=N/c3cc(S(=O)(=O)O)c4cccnc4c3O)ccc2c1

>  <targetOrTestSystem>
HCC1187

>  <IC50>
> 16 µM

$$$$
>  <cpdSmiles>
NC(=O)c1ccc(N(C(N)=O)c2c(F)cccc2F)nc1-c1ccc(F)cc1F

>  <targetOrTestSystem>
HCC1187;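 further: growth inhibition of HCC1187 cells, read out with a cell viability assay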

>  <IC50>
> 2 µM

$$$$

* * *

Tested on: BL-70
Assay: SANGER: Inhibition of human BL-70 cell growth in a cell viability assay.
Type: functional, cell-based
Details: Homo sapiens, BL-70
pIC50: −log10 of the molar value.

>  <compound>
C[C@@H](Oc1cc(-c2cnn(C3CCNCC3)c2)cnc1N)c1c(Cl)ccc(F)c1Cl [CRIZOTINIB]

>  <targetOrTestSystem>
BL-70

>  <pIC50>
< 5.70

$$$$
>  <compound>
O=S(=O)(O)c1ccc2cc(/N=N/c3cc(S(=O)(=O)O)c4cccnc4c3O)ccc2c1

>  <targetOrTestSystem>
BL-70

>  <pIC50>
< 4.80

$$$$
>  <compound>
CCCCCCCCCCCC1=C(O)C(=O)C=C(O)C1=O [EMBELIN]

>  <targetOrTestSystem>
BL-70

>  <pIC50>
5.23

$$$$

* * *

System: NB6
Test: cells
Format: functional, cell-based, Homo sapiens
Details: Homo sapiens, NB6
Description: SANGER: Inhibition of human NB6 cell growth in a cell viability assay.
pIC50: −log10 of the molar value.

>  <cpdSmiles>
C/C(=C\c1csc(C)n1)[C@@H]1C[C@@H]2O[C@]2(C)CCC[C@H](C)[C@H](O)[C@@H](C)C(=O)C(C)(C)[C@@H](O)CC(=O)O1

>  <targetOrTestSystem>
NB6

>  <censorSymbol>
=

>  <pIC50>
7.76

$$$$
>  <cpdSmiles>
NC(=O)c1cccc(-c2cc(Nc3ccc(OC(F)(F)F)cc3)ncn2)c1

>  <targetOrTestSystem>
NB6

>  <censorSymbol>
<

>  <pIC50>
5.89

$$$$
>  <cpdSmiles>
OC[C@H](Cc1ccccc1)Nc1nc(Oc2ccc3c(c2)CCC3)nc2c1ncn2Cc1ccc(-c2ccccc2)cc1

>  <targetOrTestSystem>
NB6

>  <censorSymbol>
<

>  <pIC50>
4.99

$$$$
>  <cpdSmiles>
Cc1ccc(-n2nc(C(C)(C)C)cc2NC(=O)Nc2ccc(OCCN3CCOCC3)c3ccccc23)cc1

>  <targetOrTestSystem>
NB6

>  <censorSymbol>
<

>  <pIC50>
5.00

$$$$
>  <cpdSmiles>
CN(NC(=O)CC(=O)NN(C)C(=S)c1ccccc1)C(=S)c1ccccc1

>  <targetOrTestSystem>
NB6;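 further: growth inhibition of NB6 cells, read out by a cell viability assay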

>  <censorSymbol>
=

>  <pIC50>
6.85

$$$$

* * *

Reported pIC50 is given for each of the following compounds.
Test system: KARPAS-422
Assay: cells
Assay type: functional, cell-based, Homo sapiens
Details: Homo sapiens, KARPAS-422
Description: SANGER: Inhibition of human KARPAS-422 cell growth in a cell viability assay.
pIC50: −log10 of the molar value.

>  <cpdSmiles>
Cc1cc(N2CCOCC2)cc2[nH]c(-c3c(NC[C@@H](O)c4cccc(Cl)c4)cc[nH]c3=O)nc12

>  <pIC50>
< 5.29

$$$$
>  <cpdSmiles>
Cc1ccc(NC(=O)c2ccc(CN3CCN(C)CC3)cc2)cc1Nc1nccc(-c2cccnc2)n1

>  <pIC50>
< 5.70

$$$$
>  <cpdSmiles>
Nc1ccccc1NC(=O)c1ccc(CNC(=O)OCc2cccnc2)cc1

>  <pIC50>
5.84

$$$$
